Data credit: patent US20250243286A1

TEST_SYSTEM: T1, human ActRIIA (human, UniProt P27037 20-135, limits assumed)
T1 construct: antigen in MSD-SET; also called ACVR2A; ActR2A
T1 sequence (P27037 20-135 limits assumed): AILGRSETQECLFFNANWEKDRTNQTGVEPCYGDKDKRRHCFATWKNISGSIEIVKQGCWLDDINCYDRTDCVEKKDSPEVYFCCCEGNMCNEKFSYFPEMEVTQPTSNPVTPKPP
EXPERIMENTAL_DETAILS: MSD-SET, preliminary
Kd by entry:
Please state the figure in pM; there is no need to write the unit.

As a guide, the following entries are already answered.
{"columns": ["BINDER", "REPORTED_RESULT"],
 "data": [
  ["Antibody Soidawürstle (antibody, V domains shown, full-length IgG; also called Soidawüsrstel) VH: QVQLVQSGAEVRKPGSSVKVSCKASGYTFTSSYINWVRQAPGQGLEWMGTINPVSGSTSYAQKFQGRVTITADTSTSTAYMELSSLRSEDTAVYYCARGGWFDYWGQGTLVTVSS VL: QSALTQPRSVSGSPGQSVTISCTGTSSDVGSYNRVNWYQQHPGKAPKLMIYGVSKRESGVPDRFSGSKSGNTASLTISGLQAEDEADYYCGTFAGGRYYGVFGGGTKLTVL", 34.5],
  ["Antibody Bebballesgmias (antibody, V domains shown, full-length IgG) VH: QVQLVQSGAEVKKPGSSVKVSCKASGYKFTSSYINWVRQAPGQGLEWMGTINPVSGSTSYAQKFQGRVTITADTSTSTAYMELSSLRSEDTAVYYCARGGWFDYWGQGTLVTVSS VL: QSALTQPRSVSGSPGQSVTISCTGTSSDVGSYNYVNWYQQHPGKAPKLMIYGVSKRPRGVPDRFSGSKSGNTASLTISGLQAEDEADYYCGTFAGGSYYGVFGGGTKLTVL", 142],
  ["Antibody Bäradreck (antibody, V domains shown, full-length IgG) VH: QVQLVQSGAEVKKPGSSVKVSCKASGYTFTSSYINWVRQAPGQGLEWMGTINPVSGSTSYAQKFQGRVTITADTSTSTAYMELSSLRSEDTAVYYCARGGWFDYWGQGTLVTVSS VL: QSALTQPRSVSGSPGQSVTISCTGTSSDVGSYNYVNWYQQHPGKAPKLMIYGVSKRPSGVPDRFSGSKSGNTASLTISGLQAEDEADYYCGTFAGGSYYGVFGGGTKLTVL", 112],
  ["Bebballesgmias Fab (Fab, V domains shown, Fab) VH: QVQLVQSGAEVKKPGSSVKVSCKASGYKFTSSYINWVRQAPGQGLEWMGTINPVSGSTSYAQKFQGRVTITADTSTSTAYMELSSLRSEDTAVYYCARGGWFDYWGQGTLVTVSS VL: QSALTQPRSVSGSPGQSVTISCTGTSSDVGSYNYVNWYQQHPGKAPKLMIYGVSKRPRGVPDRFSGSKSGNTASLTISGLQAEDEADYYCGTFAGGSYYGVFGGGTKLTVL", 285]
]}

Lookup: Tell me the measured Kd of Bäradreck Fab (Fab, V domains shown, Fab) VH: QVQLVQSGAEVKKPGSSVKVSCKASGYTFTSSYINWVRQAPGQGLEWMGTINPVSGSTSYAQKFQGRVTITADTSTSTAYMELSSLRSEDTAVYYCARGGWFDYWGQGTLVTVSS VL: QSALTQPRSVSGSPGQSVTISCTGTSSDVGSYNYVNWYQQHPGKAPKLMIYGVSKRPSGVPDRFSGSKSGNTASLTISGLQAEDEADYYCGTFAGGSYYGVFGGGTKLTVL , please.
Found: 655
